Cited source for all entries: a melting point compilation (Tetko et al.; mined from patent text by program, amines drawn as free bases though some values may be those of a salt)

Please go through the items and note down their melting point.

Please give melting point, item by item, for the list that follows.
1. CN1N=C2c3ccccc3CCC2C1c1ccncc1 (stereo unspecified)
2. N#Cc1ccccc1-c1ccc(CNC(=S)NN)cc1

195 to 198 °C
163 to 164 °C

* * *

Please go through the items and note down their melting point.

See these solved cases before continuing.
O=C(O)CCCCCCC1=C(C=Cc2ccccc2)C(=O)CC1; 118 to 120 °C
CN(C)c1ccc(C(=O)CCCCC2CCN(Cc3ccccc3)CC2)cc1; 121 to 123 °C
CNc1cc(SC2CCN(C)CC2)ccc1[N+](=O)[O-]; 90 °C
CCN(CC)C(=O)c1cc(C)nc([N+](=O)[O-])c1; 90 to 91 °C
CCCCCCCCCCCCCCCCSc1cc(O)c(Sc2nnnn2-c2ccccc2)cc1O; 129 to 131 °C

Please give melting point, item by item, for the list that follows.
1. CON=C(C(=O)OC)c1ccccc1COc1ccc(C(C)=NOCc2ccccc2)cc1
2. COc1cc(OC)nc(NC(=O)NS(=O)(=O)c2cc(N)ccc2C(=O)N(C)C)n1

1: 104 to 106 °C; 2: 192 to 193 °C

Please give melting point, item by item, for the list that follows.
1. COc1ccc(-c2cccc(NC(C)=O)c2)cc1OC1CCCC1
2. COc1ccc2oc(C(C)N(O)C(N)=O)cc2c1 (stereo not given)
3. CN(C(=O)COc1nc2cccc(F)c2s1)c1ccccc1

1. 112 to 114 °C
2. 149 to 151 °C
3. 116 °C

* * *

Please go through the items and note down their melting point.

See these solved cases before continuing.
CC(=O)c1ccc2c(c1)[C@@H](O)[C@H](Br)C(C)(C)O2 (relative stereo); 84 to 86 °C
COC(=O)CCNC(=O)c1cc(Cl)c([N+](=O)[O-])cc1[N+](=O)[O-]; 139 to 141 °C
Clc1ccc2nc(-c3ccsc3)c(I)n2n1; 203 to 206 °C

Please give melting point, item by item, for the list that follows.
1. CS(=O)(=O)N(c1ccc(C#Cc2cnn3c(C(F)(F)F)cc(-c4ccc(C(F)(F)F)cc4)nc23)cn1)S(C)(=O)=O
2. N#Cc1c(N2CCN(C(=O)c3cnccn3)CC2)c2ccccc2n(Cc2ccc(F)cc2)c1=O
3. CCOc1ccc(C2=NN(c3ccc(C(=O)N4CCS(=O)(=O)CC4)cc3)C(=O)[C@H]3CC=CC[C@@H]23)cc1OCC (relative stereo)

1: 250 to 251 °C; 2: 145 to 156 °C; 3: 186 to 187 °C

* * *

Please go through the items and note down their melting point.

CC(C)C(=O)Nc1ccn(C)c1; 125 to 126 °C
CCSC1=C(C#N)C(c2ccccc2)(c2ccccc2)C(=O)N1CCCBr; 97 °C
CC(C)(CO)NS(=O)(=O)c1cccc(NC(=O)c2cnn3c(C(F)F)cc(-c4ccc(Cl)cc4)nc23)c1; 229 °C
O=C(NCCN1CCN(c2cc(C(F)(F)F)ccn2)CC1)c1ccc(F)cc1; 159 °C
CC(=O)NCCC(=O)Nc1cccc(-c2cc(-c3ccc(Cl)cc3O)nc(NC(=O)c3cccs3)c2C#N)c1; 209 to 210 °C
CCOC(=O)c1cc2c(F)c(Cl)ccc2[nH]1; 143 to 145 °C

Please give melting point, item by item, for the list that follows.
1. O=C1COC2CCCc3nc4ccccc4c(c32)N1 (centres undefined)
2. COc1cc(NC(=O)CCN2CCCN(CCC(=O)Nc3cc(OC)c(OC)c(OC)c3)CC2)cc(OC)c1OC
3. COc1ccc(S(=O)(=O)N2c3cc(F)ccc3-c3ccc(F)cc3C2C)c(OC)c1 (centres undefined)
4. Cc1cc(C)c2cccc(OCc3c(C)ccc(S(=O)(=O)N4CCC[C@H]4C(=O)NCCCNC(=O)c4ccc(C=NN)cc4)c3C)c2n1
5. COc1cc(C(C)=O)ccc1OCCCCl
6. COc1cc2c3ccc(OC)c(OC)c3c(=O)n(Cc3ccccc3)c2cc1OC
7. CN(CC(O)C(Cc1ccccc1)NC(=O)OC(C)(C)C)CC(O)C(Cc1ccccc1)NC(=O)OC(C)(C)C (centres undefined)

173 to 175 °C
135 to 137 °C
112 to 115 °C
150 °C
57.8 to 58.5 °C
183 to 184 °C
62 to 70 °C

Please give melting point, item by item, for the list that follows.
1. CC(C)(C)OCCOc1cc(NC(=O)OC(C)(C)C)c(NC(=O)CC(=O)c2cccc(-n3ccnc3)c2)cc1C#Cc1ccc(F)cc1
2. CN(C)c1ncc(-c2cccc(Nc3ccc(-c4ccoc4)cc3[N+](=O)[O-])c2)cn1

1: 62 to 65 °C; 2: 181 to 182 °C
